From: patent US20240327534A1

Target: T1, human BCMA on BCMA expressing cell lines (human, UniProt Q02223 1-184)
T1 sequence: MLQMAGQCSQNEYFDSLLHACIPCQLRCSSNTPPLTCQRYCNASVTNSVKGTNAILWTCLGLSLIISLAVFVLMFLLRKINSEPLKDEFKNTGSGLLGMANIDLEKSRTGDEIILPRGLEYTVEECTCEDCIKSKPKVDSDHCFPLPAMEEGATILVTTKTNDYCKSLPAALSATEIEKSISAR
Test: cell-based or functional assay
// values below are reported TDCC EC50 (EJM cells)
MEASURE NAME: TDCC EC50 (EJM cells) (nM)

INSERT INTO assay_data (binder, quantitative_readout) VALUES
  ('BCMA targeting trispecific protein 02F12 (other, not shown: large carriers; small tags and cut ends, trispecific) VHH: EVQLVESGGGLVQPGRSLTLSCAASTNIESISPMGWYRQAPGKQRELVAAIHGTSTLYADSVKGRFTISRDNAKNSIYLQMNSLRPEDTALYYCNKVPWGDYHPGNVYWGQGTQVTVSS', 0.00314),
  ('BCMA targeting trispecific protein 01D03 (other, trispecific; not shown: anti-albumin domain, anti-CD3 domain and the linkers of the trispecific (TriTAC) format) VHH: EVQLVESGGGLVQPGRSLTLSCAASTNIFSNSPMGWYRQAPGKQRELVAAIHGDSTLYADSVKGRFTISRDNAKNSIYLQMNSLRPEDTALYYCNKVPWGDYHPRNVRWGQGTQVTVSS', 0.0149),
  ('BCMA targeting trispecific protein 01F03 (other, trispecific; not shown: the C-terminal 6xHis tag follows those domains and is left out) VHH: EVQLVESGGGLVQPGRSLTLSCAASTNIFSESPMGWYRQAPGKQRELVAAIHGNSTLYADSVKGRFTISRDNAKNSIYLQMNSLRPEDTALYYCNKVPWGTYHPRNVYWGQGTQVTVSS', 0.0764),
  ('BCMA targeting trispecific protein 01A05 (other, trispecific; not shown: anti-albumin domain, anti-CD3 domain and the linkers of the trispecific (TriTAC) format) VHH: EVQLVESGGGLVQPGRSLTLSCAASTNIFSSSPMGWYRQAPGKQRELVAAIHGFSTLYADSVKGRFTISRDNAKNSIYLQMNSLRPEDTALYYCNKVPWGDYHPRNVYWGQGTQVTVSS', 0.0151),
  ('BCMA targeting trispecific protein 02E05 (other, trispecific; also called 02E05 TriTAC; not shown: the C-terminal 6xHis tag follows those domains and is left out) VHH: EVQLVESGGGLVQPGRSLTLSCAASTNIFSRSPMGWYRQAPGKQRELVAAIHGISTLYADSVKGRFTISRDNAKNSIYLQMNSLRPEDTALYYCNKVPWGDYHPGNVYWGQGTQVTVSS', 0.00137),
  ('BCMA targeting trispecific protein 01H11 (other, not shown: large carriers; small tags and cut ends, trispecific) VHH: EVQLVESGGGLVQPGRSLTLSCVASTNIFSTSPMGWYRQAPGKQRELVAAIHGFSTLYADSVKGRFTISRDNAKNSIYLQMNSLRPEDTALYYCNKVPWGDYHPGNVYWGQGTQVTVSS', 0.00317),
  ('BCMA targeting trispecific protein 02E03 (other, trispecific; not shown: anti-albumin domain, anti-CD3 domain and the linkers of the trispecific (TriTAC) chain; the C-terminal 6xHis tag follows these missing domains and is left out) VHH: EVQLVESGGGLVQPGRSLTLSCAASTNIFSNSPMGWYRQAPGKQRELVAAIHGPSTLYADSVKGRFTISRDNAKNSIYLQMNSLRPEDTALYYCNKVPWGDYHPRNVTWGQGTQVTVSS', 0.0165);
